FYI, the data here is from paper PMC3792958.

# System: ABCG2
# assayOverview: in vitro
# runConditions: human
# Protocol: ABCG2- and ABCB1-transduced MDCKII sublines (MDCKII-ABCG2 and MDCKII-ABCB1), which stably express ABCG2 and ABCB1 protein, respectively, were purchased from dr. Alfred Schinkeĺs lab (The Netherlands Cancer Institute, Amsterdam, The Netherlands). […] MDCKII-ABCG2, MDCKII-ABCB1 or MDCKII-par cells were seeded at a density of 1×10^6 per insert 72 h before experiment. […] Concentration of CDKi was determined via HPLC/MS analysis. […]
measurementLabel: efflux ratio at 6 h, 10 µM
Number only, please.

Entry under review: CC(C)[C@H](CO)Nc1nc(Nc2cccc(Cl)c2)c2ncn(C(C)C)c2n1 . Reported efflux ratio at 6 h, 10 µM? 1.26

====

# systemName: ABCB1 (Homo sapiens)
# assayOverview: Cellular monolayer transport assay, MDCKII-ABCB1 cells
# runConditions: human, MDCK-MDR1
measurementLabel: efflux ratio at 2 h, 100 nM
// response body must contain only the number

Item under review: CC[C@H](CO)Nc1nc(NCc2ccccc2O)c2ncn(C(C)C)c2n1 . Reported efflux ratio at 2 h, 100 nM? 6.45

====

# systemName: ABCG2 (Homo sapiens, UniProt Q9UNQ0)
# assayOverview: in vitro
# runConditions: human
measurementLabel: efflux ratio at 6 h, 1 µM
Answer as a number with no unit attached.

Param item = CC(C)[C@H](CO)Nc1nc(Nc2cccc(Cl)c2)c2ncn(C(C)C)c2n1 [purvalanol A] ; retrieve measured efflux ratio at 6 h, 1 µM. 1.28

====

# assayOverview: in vitro
# runConditions: dog, MDCK
# Procedure: ABCG2- and ABCB1-transduced MDCKII sublines (MDCKII-ABCG2 and MDCKII-ABCB1), which stably express ABCG2 and ABCB1 protein, respectively, were purchased from dr. Alfred Schinkeĺs lab (The Netherlands Cancer Institute, Amsterdam, The Netherlands). […] MDCKII-ABCG2, MDCKII-ABCB1 or MDCKII-par cells were seeded at a density of 1×10^6 per insert 72 h before experiment. […] Concentration of CDKi was determined via HPLC/MS analysis. […]
measurementLabel: efflux ratio at 6 h, 1 µM
Keep the answer to the number alone.

// lookup efflux ratio at 6 h, 1 µM for CC(C)[C@H](CO)Nc1nc(Nc2cccc(Cl)c2)c2ncn(C(C)C)c2n1 [purvalanol A] 1.14

====

# Test system: ABCB1
# assayOverview: Cellular monolayer transport assay, MDCKII-ABCB1 cells
# runConditions: human, MDCK-MDR1, with LY335979 1 µM
measurementLabel: efflux ratio at 2 h, 100 nM
Lab note: jot the number down without any unit.

What efflux ratio at 2 h, 100 nM value was documented for this compound, CC[C@H](CO)Nc1nc(NCc2ccccc2O)c2ncn(C(C)C)c2n1 ? 1.48

====

# assayOverview: in vitro
# runConditions: dog, MDCK
# Protocol: ABCG2- and ABCB1-transduced MDCKII sublines (MDCKII-ABCG2 and MDCKII-ABCB1), which stably express ABCG2 and ABCB1 protein, respectively, were purchased from dr. Alfred Schinkeĺs lab (The Netherlands Cancer Institute, Amsterdam, The Netherlands). […] MDCKII-ABCG2, MDCKII-ABCB1 or MDCKII-par cells were seeded at a density of 1×10^6 per insert 72 h before experiment. […] Concentration of CDKi was determined via HPLC/MS analysis. […]
measurementLabel: efflux ratio at 6 h, 10 µM
Please give only the number in your answer, with no unit.

For the compound shown here, CC(C)[C@H](CO)Nc1nc(Nc2cccc(Cl)c2)c2ncn(C(C)C)c2n1 [purvalanol A] , give the reported efflux ratio at 6 h, 10 µM. 1.05

====

# Tested on: ABCB1
# assayOverview: in vitro
# runConditions: human, MDCK-MDR1
measurementLabel: efflux ratio at 6 h, 10 µM
Answer field: number only, no words.

Need efflux ratio at 6 h, 10 µM, item CC(C)[C@H](CO)Nc1nc(Nc2cccc(Cl)c2)c2ncn(C(C)C)c2n1 1.18

====

# System: ABCB1
# assayOverview: Cellular monolayer transport assay, MDCKII-ABCB1 cells
# runConditions: human, MDCK-MDR1, with LY335979 1 µM
measurementLabel: efflux ratio at 2 h, 1 µM
Quick one: just the number, no unit, thanks!

Request the reported efflux ratio at 2 h, 1 µM associated with CC[C@H](CO)Nc1nc(NCc2ccccc2O)c2ncn(C(C)C)c2n1 [olomoucine II] 1.83

====

# systemName: ABCB1 (Homo sapiens, UniProt P08183)
# Sequence (P08183 whole entry): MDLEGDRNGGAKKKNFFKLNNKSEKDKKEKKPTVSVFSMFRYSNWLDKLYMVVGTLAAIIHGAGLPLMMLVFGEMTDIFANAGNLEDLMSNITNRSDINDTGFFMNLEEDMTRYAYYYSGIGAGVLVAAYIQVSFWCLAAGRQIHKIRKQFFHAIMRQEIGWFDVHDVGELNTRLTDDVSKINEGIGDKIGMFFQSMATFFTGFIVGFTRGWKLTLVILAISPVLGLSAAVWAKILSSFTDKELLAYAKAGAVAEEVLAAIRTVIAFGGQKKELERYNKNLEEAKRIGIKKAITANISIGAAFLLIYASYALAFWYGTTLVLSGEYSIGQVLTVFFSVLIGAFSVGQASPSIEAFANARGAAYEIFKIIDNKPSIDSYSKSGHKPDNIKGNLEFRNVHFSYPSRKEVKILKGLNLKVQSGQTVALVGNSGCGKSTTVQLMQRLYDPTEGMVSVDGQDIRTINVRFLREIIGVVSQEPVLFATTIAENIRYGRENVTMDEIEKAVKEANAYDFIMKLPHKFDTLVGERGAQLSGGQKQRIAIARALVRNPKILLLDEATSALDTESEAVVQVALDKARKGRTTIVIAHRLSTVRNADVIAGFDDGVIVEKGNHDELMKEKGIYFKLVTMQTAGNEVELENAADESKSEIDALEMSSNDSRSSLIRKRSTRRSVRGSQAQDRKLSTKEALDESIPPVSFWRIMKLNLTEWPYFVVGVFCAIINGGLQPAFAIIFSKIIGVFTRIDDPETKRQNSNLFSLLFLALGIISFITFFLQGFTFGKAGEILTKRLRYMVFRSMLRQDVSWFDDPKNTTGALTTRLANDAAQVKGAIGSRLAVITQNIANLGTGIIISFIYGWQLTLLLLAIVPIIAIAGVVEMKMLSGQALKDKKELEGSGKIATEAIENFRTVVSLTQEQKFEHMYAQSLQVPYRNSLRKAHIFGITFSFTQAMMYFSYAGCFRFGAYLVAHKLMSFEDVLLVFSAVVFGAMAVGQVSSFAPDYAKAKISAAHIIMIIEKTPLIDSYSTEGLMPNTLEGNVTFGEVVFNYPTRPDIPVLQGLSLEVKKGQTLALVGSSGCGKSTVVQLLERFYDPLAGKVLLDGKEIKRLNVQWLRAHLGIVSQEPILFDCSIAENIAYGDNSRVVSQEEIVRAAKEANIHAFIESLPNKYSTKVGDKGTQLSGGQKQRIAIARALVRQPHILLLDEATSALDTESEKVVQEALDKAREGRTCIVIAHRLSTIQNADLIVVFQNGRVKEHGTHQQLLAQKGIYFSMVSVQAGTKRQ
# assayOverview: in vitro
# runConditions: human, MDCK-MDR1
measurementLabel: efflux ratio at 6 h, 1 µM
Answer with the value's number alone.

Value lookup for efflux ratio at 6 h, 1 µM; key = CC(C)[C@H](CO)Nc1nc(Nc2cccc(Cl)c2)c2ncn(C(C)C)c2n1 1.36

====

# Test system: ABCG2
# assayOverview: Cellular monolayer transport assay, MDCKII-ABCG2 cells
# runConditions: human, with fumitremorgin C 5 µM
measurementLabel: efflux ratio at 2 h, 1 µM

Checklist item: efflux ratio at 2 h, 1 µM tested on ABCG2, entry CC[C@H](CO)Nc1nc(NCc2ccccc2O)c2ncn(C(C)C)c2n1 , value? 1.21

====

# assayOverview: Cellular monolayer transport assay, parental MDCKII-par cells
# runConditions: dog, MDCK
measurementLabel: efflux ratio at 2 h, 100 nM

Suppose we examine the compound CC[C@H](CO)Nc1nc(NCc2ccccc2O)c2ncn(C(C)C)c2n1 [olomoucine II] ; what efflux ratio at 2 h, 100 nM value has been reported? 1.45

====

# assayOverview: Cellular monolayer transport assay, parental MDCKII-par cells
# runConditions: dog, MDCK
measurementLabel: efflux ratio at 2 h, 10 µM
// print number alone

Fill in: efflux ratio at 2 h, 10 µM of CC[C@H](CO)Nc1nc(NCc2ccccc2O)c2ncn(C(C)C)c2n1 [olomoucine II] is ___ 1.64

====

# systemName: ABCG2 (Homo sapiens, UniProt Q9UNQ0)
# Sequence (Q9UNQ0 1-655): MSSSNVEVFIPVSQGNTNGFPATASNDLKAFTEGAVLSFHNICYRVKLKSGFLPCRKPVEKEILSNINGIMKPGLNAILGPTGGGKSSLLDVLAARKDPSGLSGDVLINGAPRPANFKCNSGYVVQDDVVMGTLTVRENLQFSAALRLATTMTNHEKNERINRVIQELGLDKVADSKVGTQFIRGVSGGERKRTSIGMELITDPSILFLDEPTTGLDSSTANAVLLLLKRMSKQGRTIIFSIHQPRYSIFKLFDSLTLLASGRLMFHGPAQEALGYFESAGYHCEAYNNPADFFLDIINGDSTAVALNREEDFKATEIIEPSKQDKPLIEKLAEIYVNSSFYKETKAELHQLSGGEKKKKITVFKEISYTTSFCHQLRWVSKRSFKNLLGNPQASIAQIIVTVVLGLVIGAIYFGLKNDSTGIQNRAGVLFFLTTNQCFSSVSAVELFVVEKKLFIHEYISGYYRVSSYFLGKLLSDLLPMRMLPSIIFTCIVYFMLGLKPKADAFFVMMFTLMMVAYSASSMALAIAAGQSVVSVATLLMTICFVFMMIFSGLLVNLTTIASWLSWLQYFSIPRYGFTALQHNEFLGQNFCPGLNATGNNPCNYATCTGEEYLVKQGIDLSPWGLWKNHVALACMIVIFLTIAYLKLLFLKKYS
# assayOverview: Cellular monolayer transport assay, MDCKII-ABCG2 cells
# runConditions: human
# Description: ABCG2- and ABCB1-transduced MDCKII sublines (MDCKII-ABCG2 and MDCKII-ABCB1), which stably express ABCG2 and ABCB1 protein, respectively, were purchased from dr. Alfred Schinkeĺs lab (The Netherlands Cancer Institute, Amsterdam, The Netherlands). […] MDCKII-ABCG2, MDCKII-ABCB1 or MDCKII-par cells were seeded at a density of 1×10^6 per insert 72 h before experiment. […] Concentration of CDKi was determined via HPLC/MS analysis. […]
measurementLabel: efflux ratio at 2 h, 100 nM
Give your answer as a number; write no unit.

Look up efflux ratio at 2 h, 100 nM for this molecule: CC[C@H](CO)Nc1nc(NCc2ccccc2O)c2ncn(C(C)C)c2n1 2.27
